- assay-comment: Biodistribution study (SPECT/CT) in SK-RC-52 tumor-bearing mice with or without gelofusine
- Type: in vivo, NMRI nude mice
- test-conditions: female, NMRI nude, mouse, in vivo, iv, total radioactivity, SK-RC-52 tumor, 4% gelofusine immediately before; peak at 4 hours (DPI-4452) or 1 hour (DPI-4501), mean±SEM; read-out: peak tumor uptake
measure-name: tissue uptake

What does the record list as tissue uptake for CC(C)C[C@@H]1NC(=O)[C@H](Cc2cccc(NC(=O)CCCS(N)(=O)=O)c2)NC(=O)[C@H](CC(=O)O)NC(=O)[C@H]2CCCN2C(=O)[C@H](CCC(=O)O)NC(=O)[C@@H](NC(=O)[C@H](CCC(N)=O)NC(=O)CN2CCN(C(=O)CN3CCN(CC(=O)O)CCN(CC(=O)O)CCN(CC(=O)O)CC3)CC2)CSCc2cccc(c2)CSC[C@@H](C(N)=O)NC(=O)[C@H](CO)NC(=O)[C@H](Cc2c[nH]c3ccccc23)NC(=O)[C@H]([C@@H](C)O)NC1=O [[^111In]In-DPI-4452, metal not drawn] ?
13.4 %ID/g
